Target: Human immunodeficiency virus type 1 integrase (Human immunodeficiency virus 1, UniProt Q7ZJM1)
Sequence (Q7ZJM1 whole entry): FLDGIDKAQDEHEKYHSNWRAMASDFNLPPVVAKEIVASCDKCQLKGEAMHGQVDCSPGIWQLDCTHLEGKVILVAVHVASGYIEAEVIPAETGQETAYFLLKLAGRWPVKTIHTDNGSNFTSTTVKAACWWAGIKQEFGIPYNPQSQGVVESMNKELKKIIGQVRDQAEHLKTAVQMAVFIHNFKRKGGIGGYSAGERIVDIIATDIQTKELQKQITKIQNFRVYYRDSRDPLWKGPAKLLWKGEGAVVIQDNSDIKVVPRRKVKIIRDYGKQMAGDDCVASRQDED
Assay: Inhibition of recombinant HIV1 integrase using preprocessed donor DNA treated after washing excess enzyme by strand transfer assay
pIC50: −log10 of the molar value.
Measured Endpoint: pIC50

molecule=C=C(CC[C@@H](C)[C@H]1CC=C2C3=C([C@@H](O)[C@H](OC(C)=O)[C@@]21C)[C@@]1(C)C[C@@H](OC(=O)CCC(=O)NO)[C@H](O)C(C)(C)[C@@H]1CC3)C(C)C value_modifier=< value_measured=4.30
molecule="C=C(CC[C@@H](C)[C@H]1CC=C2C3=C([C@@H](O)[C@H](OC(C)=O)[C@@]21C)[C@@]1(C)C[C@@H](O)[C@H](OS(=O)(=O)O)C(C)(C)[C@@H]1CC3)C(C)C [INTEGRACIDE A]" value_modifier== value_measured=5.05
molecule="CC(=O)O[C@H]1[C@H](O)C2=C(CC[C@H]3C(C)(C)[C@@H](OS(=O)(=O)O)[C@H](OC(=O)CCCCCCCCCCCCCCCO)C[C@]23C)C2=CC[C@H]([C@H](C)CCC3(C(C)(C)O)CO3)[C@]21C (stereo not given in full)" value_modifier== value_measured=4.85
molecule=C=C(CC[C@@H](C)[C@H]1CC=C2C3=C([C@@H](O)[C@H](OC(C)=O)[C@@]21C)[C@@]1(C)CC[C@H](OS(=O)(=O)O)C(C)(C)[C@@H]1CC3)C(C)C value_modifier== value_measured=5.32
molecule=C=C(CC[C@@H](C)[C@H]1CC=C2C3=C([C@@H](O)[C@H](OC(C)=O)[C@@]21C)[C@@]1(C)C[C@@H](OC(=O)CN)[C@H](OC(=O)CN)C(C)(C)[C@@H]1CC3)C(C)C value_modifier== value_measured=4.94
molecule=C=C(CC[C@@H](C)[C@H]1CC=C2C3=C([C@@H](O)[C@H](OC(C)=O)[C@@]21C)[C@@]1(C)C[C@@H](OC(=O)CN)[C@H](O)C(C)(C)[C@@H]1CC3)C(C)C value_modifier=< value_measured=4.30
molecule=C=C(CC[C@@H](C)[C@H]1CC=C2C3=C([C@@H](O)[C@H](OC(C)=O)[C@@]21C)[C@@]1(C)C[C@@H](OCOC)[C@H](OCOC)C(C)(C)[C@@H]1CC3)C(C)C value_modifier=< value_measured=4.10
molecule="C[C@H](CCC(O)C(C)(C)O)[C@H]1CC[C@@]2(C)C3=C(CC[C@]12C)[C@@]1(C)C[C@@H](O)C(=O)C(C)(C)[C@@H]1CC3 (stereo not given in full)" value_modifier=< value_measured=4.00
molecule=C=C(CC[C@@H](C)[C@H]1CC=C2C3=C([C@@H](O)[C@H](OC(C)=O)[C@@]21C)[C@@]1(C)C[C@@H](O)[C@H](OC(=O)CCC(=O)O)C(C)(C)[C@@H]1CC3)C(C)C value_modifier== value_measured=4.92
molecule=C=C(CC[C@@H](C)[C@H]1CC=C2C3=C([C@@H](O)[C@H](OC(C)=O)[C@@]21C)[C@@]1(C)C[C@@H](O)[C@H](OC(=O)CN)C(C)(C)[C@@H]1CC3)C(C)C value_modifier=< value_measured=4.30

---

Some compounds, each annotated with its measured IC50.
Target: UniProt Q7ZJM1
Assay: Inhibition of recombinant HIV1 integrase using unprocessed donor DNA by coupled assay
Measured Endpoint: IC50 (µM)

compound=C=C(CC[C@@H](C)[C@H]1CC=C2C3=C([C@@H](O)[C@H](OC(C)=O)[C@@]21C)[C@@]1(C)C[C@@H](O)[C@H](OC(=O)CCC(=O)OC)C(C)(C)[C@@H]1CC3)C(C)C measured_endpoint=IC50 uom=µM value_modifier=> value_measured=50
compound=C=C(CC[C@@H](C)[C@H]1CC=C2C3=C([C@@H](O)[C@H](OC(C)=O)[C@@]21C)[C@@]1(C)C[C@@H](OC(=O)CCC(=O)O)[C@H](O)C(C)(C)[C@@H]1CC3)C(C)C measured_endpoint=IC50 uom=µM value_modifier== value_measured=3
compound="C[C@H](CCC(O)C(C)(C)O)[C@H]1CC[C@@]2(C)C3=C(CC[C@]12C)[C@@]1(C)C[C@@H](O)C(=O)C(C)(C)[C@@H]1CC3 (stereo not given in full)" measured_endpoint=IC50 uom=µM value_modifier== value_measured=68
compound=C=C(CC[C@@H](C)[C@H]1CC=C2C3=C([C@@H](O)[C@H](OC(C)=O)[C@@]21C)[C@@]1(C)C[C@@H](OC(=O)CN)[C@H](O)C(C)(C)[C@@H]1CC3)C(C)C measured_endpoint=IC50 uom=µM value_modifier== value_measured=23
compound=C=C(CC[C@@H](C)[C@H]1CC[C@H]2C3=C([C@@H](O)[C@H](OC(C)=O)[C@]12C)[C@@]1(C)C[C@@H](O)[C@H](OS(=O)(=O)O)C(C)(C)[C@@H]1CC3)C(C)C measured_endpoint=IC50 uom=µM value_modifier== value_measured=5
